Origin of values: the supplement of paper PMC9170038

test system: MS2 coat protein; test: apparent KD of MS2 coat protein; designed switch direction (-1 OFF switch, 1 ON switch): -1; higher = weaker reporter binding; conditions: Eterna round: R95; input ligand: microRNA oligo, concentration not stated
Quick list: apparent KD of MS2 coat protein per entry.

# sequence_text, apparent KD of MS2 coat protein, nM
data = [
    ("GAGUAGUAAGGAUAUAGUAGGAGGGAGAAGUGAGGAGAGAACUAGAAGGUACAUGAGGAUCACCCAUGUUGAGA [JR_Exclu4_Sub084] (puzzle: Exclusion 4)", 19.2),
    ("CCAUGUUAGCAGGAUAUGCUAUUAAUCUUUUAUGCAGAAGGGCUUACAUGAGGAUCACCCAUGUAUUAAGUCAA [JR_E6_Sub077] (puzzle: Exclusion 6)", 13.2),
    ("UUUGAUUAAGUGAGGAUAUACUGUUUGUAUUGAUUGUAGAAGGUACAUGAGGAUCACCCAUGUUUAGUAUUUAU [JR_BME4_Sub037] (puzzle: Brourd's mod of Exclusion 4)", 19.2),
]
